Values from patent US8883745B2

- Test system: IL-12
- protocol summary: IL-12 levels in sera upon i.v. glycolipid administration to BALB/c mice (ELISA)
- Format: in vivo
- Set-up: unit not given here
- cond: serum, hour 12
- Description: Five- to six-week-old female C57BL/6 mice and BALB/c mice were purchased from Taconic. Each glycolipid was stored at 1 mg/ml in 100% DMSO. […] At indicated time points, sera were collected from each animal, and concentrations of IFN-γ, IL-4, and IL-12 in the sera were evaluated by enzyme-linked immunosorbent assay (ELISA). Serum concentrations of IFN-γ, IL-4, and IL-12 were evaluated using an ELISA kit (eBioscience, San Diego, Calif.). […]
The reader will find reported IL-12 levels, test 2 values listed item by item below.

molecule: CCCCCCCCCCCCCCCCCCCCCCCCCCCCC(=O)N[C@@H](/C=C/[C@H]1O[C@H](CO)[C@H](O)[C@H](O)[C@H]1O)[C@H](O)[C@H](O)CCCCCCCCCCCCCC [A-2]
test system: IL-12
IL-12 levels, test 2: 10000
--
molecule: CCCCCCCCCCCCCC[C@@H](O)[C@@H](O)[C@H](CC[C@H]1O[C@H](CO)[C@H](O)[C@H](O)[C@H]1O)NC(=O)CCCCCCCCCCCCCCCCCCCOCCCCC [A-5]
test system: IL-12
IL-12 levels, test 2: 3367
--
molecule: CCCCCCCCCCCCCCCCCC/C=C/CCCCCCCCC(=O)N[C@@H](/C=C/[C@H]1O[C@H](CO)[C@H](O)[C@H](O)[C@H]1O)[C@H](O)[C@H](O)CCCCCCCCCCCCCC [A-1]
test system: IL-12
IL-12 levels, test 2: 6489
--
molecule: CCCCCCCCCCCCCCCCCCCCCCCCCC(=O)N[C@@H](CO[C@H]1O[C@H](CO)[C@H](O)[C@H](O)[C@H]1O)[C@H](O)[C@H](O)CCCCCCCCCCCCCC [KRN, reference compound]
test system: IL-12
IL-12 levels, test 2: 593
--
molecule: CCCCCCCCCCCCCC[C@@H](O)[C@@H](O)[C@H](CC[C@H]1O[C@H](CO)[C@H](O)[C@H](O)[C@H]1O)NC(=O)CCCCCCCCCCCCCCCCCCCOCCCCCC [A-4]
test system: IL-12
IL-12 levels, test 2: 5127
--
molecule: CCCCCCCCCCCCCCCCC/C=C/CCCCCCCCC(=O)N[C@@H](CC[C@H]1O[C@H](CO)[C@H](O)[C@H](O)[C@H]1O)[C@H](O)[C@H](O)CCCCCCCCCCCCCC [A-3]
test system: IL-12
IL-12 levels, test 2: 2765
--
molecule: CCCCCCCCCCCCCCCCCCCCCCCCCC(=O)N[C@@H](CC[C@H]1O[C@H](CO)[C@H](O)[C@H](O)[C@H]1O)[C@H](O)[C@H](O)CCCCCCCCCCCCCC [CRONY, reference compound]
test system: IL-12
IL-12 levels, test 2: 2060
